Tested on: PDE4
Experiment: Inhibition of PDE4, radioenzymatic phosphodiesterase assay
Assay type: biochemical, bovine
Details: Table 3, formula (II); compound at 10 μM
result-type: PDE4 percentage inhibition at 10 μM (%)
Answers are plain numbers, in %.

Please review the entries below; each comes with its answer.
Report PDE4 percentage inhibition at 10 μM from PDE4 testing of CCN1C(=O)C(Cc2cc(Br)cc(Br)c2)N=C(c2ccccc2)c2cc(OC)c(OC)cc21 (stereo not shown) [IIbx]
18

Output reported PDE4 percentage inhibition at 10 μM of the molecule C#CCC1N=C(c2ccccc2)c2cc(OC)c(OC)cc2N(CC)C1=O (stereo not shown) [IIbt] on PDE4.
38.4

Look up and report measured PDE4 percentage inhibition at 10 μM (PDE4) for the following molecule: COc1ccc(C2=NCC(=O)N(C)c3cc(OC)c(OC)cc32)cc1OC [IIab]
38

Report the value of PDE4 percentage inhibition at 10 μM obtained on PDE4 for CCN1C(=O)CN=C(c2ccccc2)c2cc(OC)c(OC)cc21 [IIbd] .
34.3

With PDE4 as the test system, provide measured PDE4 percentage inhibition at 10 μM for this molecule: COc1ccc2cc(C3=NCC(=O)N(C)c4cc(OC)c(OC)cc43)ccc2c1 [IIap]
18

Give measured PDE4 percentage inhibition at 10 μM for every item shown.
1. CCN1C(=O)C(C2(O)CCN(Cc3ccccc3)CC2)N=C(c2ccccc2)c2cc(OC)c(OC)cc21 (stereo not shown) [IIcl]
2. CCOC(=O)CN1C(=O)CN=C(c2ccccc2)c2cc(OCC)c(OCC)cc21 [IIbi]
3. COc1cc2c(cc1OC)N(Cc1ccccc1)C(=O)CN=C2c1ccccc1 [IIbc]
4. COc1cc2c(cc1OC)C(c1ccccc1)=NC(c1ccccc1CNC(C)=O)C(=O)N2 (stereo not shown) [IIcf]
5. COc1cc2c(cc1OC)N(C)C(=O)CN=C2c1ccccc1C [IIau]

4.3
23.1
27.2
21
18.5

Kindly give each listed record's PDE4 percentage inhibition at 10 μM.
1. CCN1C(=O)C(Cc2ccc(-c3ccccc3)cc2)N=C(c2ccccc2)c2cc(OC)c(OC)cc21 (stereo not shown) [IIck]
2. CCN1C(=O)C(Cc2ccc(C)cc2)N=C(c2ccccc2)c2cc(OC)c(OC)cc21 (stereo not shown) [IIdd]
3. COc1cc2c(cc1OC)N(C)C(=O)CN=C2c1ccc(F)cc1 [IIad]
4. COc1ccc2c(c1)C(c1ccccc1)=NCC(=O)N2C [IIdl]
5. CCOC(=O)CC1N=C(c2ccccc2)c2cc(OC)c(OC)cc2N(CC)C1=O (stereo not shown) [IIbv]
6. COc1cc2c(cc1OC)N(CCO)C(=O)CN=C2c1ccccc1 [IIcx]

32.2
31.5
23
34.6
44.4
9.9

Please give PDE4 percentage inhibition at 10 μM for each item listed below.
1. CCN1C(=O)C(C/C=C/c2ccccc2)N=C(c2ccccc2)c2cc(OC)c(OC)cc21 (stereo not shown) [IIbz]
2. COc1cc2c(cc1OC)N(C)C(=O)[C@H](Cc1ccccc1)N=C2c1ccccc1 [IIdj]
3. COc1cc2c(cc1OC)N(C)C(=O)CN=C2N1CCCCC1 [IIar]

1: 42.3; 2: 48.3; 3: 0

---

Target: PDE4
Assay: Inhibition of PDE4, radioenzymatic phosphodiesterase assay
Type: biochemical, bovine
Conditions: Table 1, formula (III); 1 μM cyclic AMP
For each of the molecules below, state its IC50.
One number for each entry, in µM.

See these solved cases before continuing.
Give the value of IC50 reported for the following: COc1cc2c(cc1OC)C(c1ccc(-c3cc(C(F)(F)F)cc(C(F)(F)F)c3)cc1)=NN(C)C(=O)C2
16

# return recorded IC50 for entry COc1cc2c(cc1OC)C(c1cccc3ccccc13)=NN(C)C(=O)C2
9.3

State its IC50 for this molecule: CCOc1cc2c(cc1OCC)C(c1cc3ccccc3s1)=NN(C)C(=O)C2
6.9

Hello, please tell me recorded IC50 for this one: COc1cc2c(cc1OC)C(c1ccc(-c3ccc(Cl)cc3)cc1)=NN(C)C(=O)C2
2.3

Please give measured IC50 of the following entry: COc1cc2c(cc1OC)C(c1ccc(-c3cccc(C(C)=O)c3)cc1)=NN(C)C(=O)C2
1.8

Quickly give me recorded IC50 for COc1cc2c(cc1OC)C(c1ccc(-c3ccccc3C)cc1)=NN(C)C(=O)C2
1.9

Note down IC50 recorded for CCCCCC#Cc1ccc(C2=NN(C)C(=O)Cc3cc(OC)c(OC)cc32)cc1
7.8

Read off the recorded IC50 for COc1cc2c(cc1OC)C(c1ccc(-c3ccco3)cc1)=NN(C)C(=O)C2
0.9

Now let's try a different one.
# return recorded IC50 for input COc1cc2c(cc1OC)C(c1ccc(-c3cccs3)cc1)=NN(C)C(=O)C2
3.8

---

Field: pIC50. Provide a value for each of the compounds that follow.
Target: PDE4
Assay: Inhibition of PDE4, radioenzymatic phosphodiesterase assay
Format: biochemical, bovine
Details: Table 3, formula (II); 1 μM cyclic AMP
Numbers only, as −log10 of the molar value.

Here is how some compounds turned out for pIC50.
Name the recorded pIC50 of CCOc1cc2c(cc1OC)C(c1ccccc1)=NC(Cc1ccccc1C#N)C(=O)N2C (stereo not drawn) , assay system PDE4.
5.96

Quote PDE4 pIC50 for entry CCN1C(=O)C(Cc2ccccc2OC)N=C(c2ccccc2)c2cc(OC)c(OC)cc21 (stereo not drawn) .
5.57

// fetch pIC50 for COc1cc2c(cc1OC)N(C)C(=O)CN=C2c1cccs1 ; system: PDE4
4.80

Give measured pIC50 for COc1cc2c(cc1OC)C(c1ccccc1)=NC(c1ccccc1CCNC(C)=O)C(=O)N2 (stereo not drawn) (PDE4).
5.72

Quote pIC50 with test system PDE4 for CCOc1cc2c(cc1OC)C(c1ccccc1)=NC(Cc1ccccc1)C(=O)N2CC (stereo not drawn)
5.50

Enter pIC50 (test system PDE4) for COc1cc2c(cc1OC)N(C)C(=O)CN=C2c1ccc(Br)cc1
4.77

# lookup: PDE4 pIC50, key = CCN1C(=O)C(Cc2ccccc2C)N=C(c2ccccc2)c2cc(OC)c(OC)cc21 (stereo not drawn)
5.36

For PDE4, give the measured pIC50 of the entry COc1cc2c(cc1OC)N(C)C(=O)CN=C2c1cc2ccccc2s1
5.64

Lab note: next compound to report on.
System PDE4. Read-out pIC50. Item CCN1C(=O)C(Cc2ccccc2CN)N=C(c2ccccc2)c2cc(OC)c(OC)cc21 (stereo not drawn) . Report value.
5.17

---

Molecular target: PDE4
Experiment: Inhibition of PDE4, radioenzymatic phosphodiesterase assay
Type: biochemical, bovine
Conditions: Table 3, formula (II); 1 μM cyclic AMP
result-type: IC50

Write IC50 of CCN1C(=O)C(C(O)(c2ccccc2)c2ccccc2)N=C(c2ccccc2)c2cc(OC)c(OC)cc21 (stereo not shown) [IIby] ; system used: PDE4
8.2 µM

Report the value of IC50 obtained on PDE4 for COc1cccc(C2=NCC(=O)N(C)c3cc(OC)c(OC)cc32)c1 [IIal] .
10 µM

Look up and report measured IC50 (PDE4) for the following compound: COc1cc2c(cc1OC)N(C)C(=O)CN=C2c1cccc(Br)c1 [IIax]
8.2 µM

Next item in the queue.
Please look at CCN1C(=O)CN=C(c2cccc(Br)c2)c2cc(OC)c(OC)cc21 [IIbm] and tell me its recorded IC50 on PDE4.
7.3 µM
